target: TDO2 (Homo sapiens, UniProt P48775); construct: decreased levels of NFK in SW48 cells (high TDO expressing cells); experiment: TDO2 cell assay (NFK GreenScreen, SW48 cells); assay type: cell-based; conditions: SW48 cells (high TDO expressing), 200 uM tryptophan, 24 hours; Table 3; read-out: TDO2 Cell Fluor EC50
Sequence (P48775 whole entry): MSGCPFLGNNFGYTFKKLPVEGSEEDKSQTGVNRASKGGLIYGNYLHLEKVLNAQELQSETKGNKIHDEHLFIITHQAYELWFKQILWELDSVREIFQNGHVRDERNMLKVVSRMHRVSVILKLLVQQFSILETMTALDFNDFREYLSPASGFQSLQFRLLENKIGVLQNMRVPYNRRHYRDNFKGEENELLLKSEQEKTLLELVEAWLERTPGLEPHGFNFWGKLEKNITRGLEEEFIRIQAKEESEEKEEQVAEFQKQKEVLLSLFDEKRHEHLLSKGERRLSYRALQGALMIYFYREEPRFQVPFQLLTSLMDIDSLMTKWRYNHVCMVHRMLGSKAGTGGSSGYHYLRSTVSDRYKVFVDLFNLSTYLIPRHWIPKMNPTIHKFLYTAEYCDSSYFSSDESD
pEC50: −log10 of the molar value.
Quantity: pEC50

Solved cases (3 shown):
Molecule: Cc1ncc2c(n1)CCC(C1c3ccccc3-c3cncn31)C2O (single isomer, unassigned) [Example 124b]
pEC50: 6.54
//
Molecule: O[C@H]1c2cccnc2CC[C@@H]1[C@@H]1c2ccc(F)cc2-c2cncn21 (single isomer, unassigned) [Example 169b]
pEC50: 4.80
//
Molecule: Cc1nc2c(o1)CCC(C1c3ccccc3-c3cncn31)C2O (single isomer, unassigned) [Example 178a]
pEC50: 6.92

[a] O[C@@H]1c2ccccc2CC[C@H]1[C@@H]1c2ccccc2-c2cncn21 (single isomer, unassigned) [Example 102g]
[b] NC(=O)c1ccc2c(c1)CCC(C1c3ccccc3-c3cncn31)C2O (single isomer, unassigned) [Example 60d]
Query: Name the one with the greater pEC50 value, either a or b as given. Answer by stating the label of the chosen item.
Result: a
